# measurement-target: Alpha-2C adrenergic receptor (Homo sapiens) (UniProt P18825)
# Sequence (P18825 whole entry): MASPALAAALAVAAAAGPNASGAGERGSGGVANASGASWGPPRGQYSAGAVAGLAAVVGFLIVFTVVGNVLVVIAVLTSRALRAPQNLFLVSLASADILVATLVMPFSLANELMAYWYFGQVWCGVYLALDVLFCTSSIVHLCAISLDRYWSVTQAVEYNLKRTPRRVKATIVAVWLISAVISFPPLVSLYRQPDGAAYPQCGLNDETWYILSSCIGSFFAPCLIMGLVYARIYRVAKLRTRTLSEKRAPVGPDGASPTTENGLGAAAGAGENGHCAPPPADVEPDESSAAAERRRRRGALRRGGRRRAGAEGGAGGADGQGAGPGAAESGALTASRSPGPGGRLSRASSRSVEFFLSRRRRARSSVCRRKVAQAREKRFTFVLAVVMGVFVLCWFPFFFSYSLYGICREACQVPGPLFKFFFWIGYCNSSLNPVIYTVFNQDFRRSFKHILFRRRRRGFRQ
# assay-notes: Intrinsic activity at human adrenoceptor aplha 2C expressed in CHO cells by cytosensor microphysiometric analysis relative to (-)-noradrenaline
# Type: cell-based
Below: a set of entries, each annotated with reported Intrinsic activity.
Give the value as a plain number.

Consider the reported Intrinsic activity for these molecules:
{"columns": ["molecule", "recorded-value"],
 "data": [
  ["CC(Oc1ccccc1Cl)C1=NCCN1 (configuration not stated)", 0.83],
  ["CC(Oc1ccccc1OC1CC1)C1=NCCN1 (configuration not stated)", 0.7],
  ["CC(=O)c1ccccc1OC(C)C1=NCCN1 (configuration not stated)", 0.65]
]}

response.value for CC(Oc1ccccc1C(C)C)C1=NCCN1 (configuration not stated) (field: Intrinsic activity) = 0.73

molecule Cc1cccc(C)c1OC(C)C1=NCCN1 (configuration not stated) , Intrinsic activity observed: 0.82

Sample C=COc1ccccc1OC(C)C1=NCCN1 (configuration not stated) ; Intrinsic activity observed: 0.48

Intrinsic activity measured on C=C(C)c1ccccc1OC(C)C1=NCCN1 (configuration not stated) = 0.71
